Entries and their GI50
tested on: IGROV-1; assay: NCI tumour cell line growth inhibition, 48 h
The source made the active and inactive calls. Rule as the data show it: active = GI50 up to about 1.1 µM and inactive = higher.
measurementName: GI50

* CN(C(=O)[C@@H](NC(=O)OC(C)(C)C)c1ccccc1)[C@H]1CCCC[C@@H]1N1CCCC1 | > 100 µM (inactive)
* CCOC(=O)c1nnc2c(C#N)c(-c3ccccc3)c(C)n2c1N | 22.2 µM (inactive)
* Clc1nc2n(c1/C=C/c1cccs1)CCS2 | 32 µM (inactive)
* COCN/C(N)=N/C#N | > 100 µM (inactive)
* CCSc1nc(N2CCCC2)s[s+]1.[O-][Cl+3]([O-])([O-])[O-] | 4.07 µM (inactive)
* CCCN(CCC)c1c([N+](=O)[O-])cc(C(=O)N(CC)CC)cc1[N+](=O)[O-] | 32.3 µM (inactive)
* CCOC(=O)c1[nH]c2cccc3c2c1CC[C@H](NC(=O)C(F)(F)F)C3=O | 75.5 µM (inactive)
* COC12OCCN(C)C1=CC(=O)C1=NNC(C)C12 (stereo unspecified) | > 100 µM (inactive)
* Nc1nc(Cl)cc(NCC2(CO)CCCC2)n1 | > 100 µM (inactive)
* Cc1cccc(C(C)O)n1 (stereo unspecified) | > 100 µM (inactive)
* CCOC(=O)/C=C(\C(=O)OCC)n1cnc2c(N)ncnc21 | 10.8 µM (inactive)

* * *

system: NCI-H23; test: NCI tumour cell line growth inhibition, 48 h
Active and inactive are the calls of the source. No stated cut-off is given here; in the data, active = GI50 up to about 1.1 µM and inactive = higher.
measurementName: GI50

• O=C1c2ccccc2C2(c3ccc(F)cc3)NCCN12 (stereo not drawn) = > 100 µM (inactive)
• N#Cc1ccc(-n2c3ccccc3c3ccc4c(c32)C(=O)C=CC4=O)cc1 = 6.89 µM (inactive)
• Cc1nc(-c2ccccc2)cn2c1nc1ccccc12 = 25.9 µM (inactive)
• O=C1[C@H]2ON(c3ccccc3)C(c3cccc([N+](=O)[O-])c3)[C@H]2C(=O)N1c1ccc(Cc2ccc(N3C(=O)[C@@H]4ON(c5ccccc5)C(c5cccc([N+](=O)[O-])c5)[C@@H]4C3=O)cc2)cc1 (stereo partly drawn) = > 100 µM (inactive)
• Cc1nc2c(=S)[nH]ncc2[nH]1 = > 100 µM (inactive)
• C[C@]12CC[C@H]3[C@@H](CC=C4C[C@@H](O)CC[C@@]43C)[C@@H]1C/C(=C\c1ccc([N+](=O)[O-])cc1)[C@@H]2O = 9.98 µM (inactive)
• CCOC(=O)c1ccc(N2C(=S)N(C(=O)c3ccccc3)C(=N/c3ccccc3)/C2=N\c2ccccc2)cc1 = 56.1 µM (inactive)
• COc1ccc(Nc2nc(NNC(=O)Cc3ccccc3)nc(NNC(=O)c3ccncc3)n2)cc1 = > 10 µM (inactive)

* * *

Entries and their GI50
system: COLO 205; assay: NCI tumour cell line growth inhibition, 48 h
Active and inactive are the calls of the source. Cut-off read from the data, not from the text of the source: active = GI50 up to about 1.1 µM and inactive = higher.
measurementName: GI50

• CCCSc1nc(-c2ccc(OC)cc2)c(C#N)c(=O)n1C1OC(COC(C)=O)C(OC(C)=O)C(OC(C)=O)C1OC(C)=O (stereo unspecified) = > 100 µM (inactive)
• COc1ccc(C2SCC(=O)N2NC(=O)C(C)Oc2ccccc2C)cc1 (stereo unspecified) = > 100 µM (inactive)
• COc1cc(C2SCC(=O)N2c2ccc(Cl)cc2)cc(OC)c1OC (stereo unspecified) = 1.94 µM (inactive)
• CC(C)(C)OC(=O)N/N=C(/N)c1ccccc1 = > 100 µM (inactive)
• O=C(NCCCCCCCCNC(=O)Nc1cccc2ccccc12)Nc1cccc2ccccc12 = 35.6 µM (inactive)
• C[C@]12C[C@H](c3ccccc3)Nc3ccccc3N1C(c1ccccc1)=NO2 = 78.7 µM (inactive)

* * *

test system: MOLT-4; assay: NCI tumour cell line growth inhibition, 48 h
Calls of active or inactive are those of the source. Cut-off read from the data, not from the text of the source: active = GI50 up to about 1.1 µM and inactive = higher.
Entries and their GI50
measurementName: GI50

- CN(C)c1ccc(/C=C2\N=C(c3ccccc3)N(/N=C3\C(=O)Nc4ccccc43)C2=O)cc1: 32 µM (inactive)
- O=C(O)CCCCn1ccc(=O)[nH]c1=O: > 100 µM (inactive)
- CC1=Nn2c(nnc2-c2ccc(N)cc2)NC(C)(C)C1: > 100 µM (inactive)
- O=C1CCC(c2nc3ccccc3o2)C(=O)N1 (stereo not drawn): > 100 µM (inactive)
- COC(=O)C1=C(C(=O)OC)C2(CCCCCC2=O)OC1=O (stereo not drawn): > 100 µM (inactive)
- O=C1CCCCC12CCC/C2=N\O (stereo not drawn): > 100 µM (inactive)
- C[C@]12CC[C@H]3[C@@H](CC[C@]4(O)C[C@@H](O)CC[C@]34CO)[C@@]1(O)CC[C@@H]2C1=CC(=O)OC1: 0.225 µM (active)
- n1onc2c1NC1Nc3nonc3NC1N2 (stereo not drawn): > 100 µM (inactive)
- N/C(=N\NC(=O)c1nc2ccccc2s1)c1ccccn1: 1.29 µM (inactive)
- CCCC#CC(O)(C(=O)OC1CCN(C)CC1)C1CCCCC1 (stereo not drawn): 91.6 µM (inactive)
- N#Cc1nc(/C=C/c2cccnc2)oc1N: > 100 µM (inactive)
- O=C(O)C12C3CCCC1C2CC3 (stereo not drawn): > 100 µM (inactive)
- CCOC(=O)CCCc1cc(O)c2c(C)c3[nH]c4ccc(Cl)cc4c3c(C)c2n1: 49.8 µM (inactive)
- COc1ccc(C(=O)C=C2NCCN2)cc1: > 100 µM (inactive)
- CCOC(=O)C1=C(c2ccccc2)N(C(C)=O)Cc2ccccc21: 12 µM (inactive)
- COc1cc(CC(=O)O)c([N+](=O)[O-])cc1OC: > 100 µM (inactive)
- O=C(/N=N/c1cccc(Cl)c1)NNc1cccc(Cl)c1: 10.9 µM (inactive)
- CNc1ccc(C)cc1S(=O)(=O)c1ccccc1[N+](=O)[O-]: 18.4 µM (inactive)
- COc1ccc2c(n1)Sc1nc3ccccc3nc1N2: 13.8 µM (inactive)
- CC(C)(C)OC(=O)C1/C(=C/CBr)CN1C(=O)OC(C)(C)C (stereo not drawn): 6.56 µM (inactive)
- C[C@]12CC[C@H](O)CC1=CC[C@@H]1C2CC[C@]2(C)Nc3c(cnn3-c3ccccc3)CC12 (stereo partly drawn): 1.5 µM (inactive)
- COc1ccc(O[C@H](COCc2ccccc2)C[C@@H]2COC(C)(C)O2)cc1: > 100 µM (inactive)
- CC(C)(C)[Si](C)(C)Oc1ccc(C2CNC(=O)C23CCC(=O)N3Cc2ccccc2)cc1 (stereo not drawn): 6.14 µM (inactive)

* * *

Entries and their GI50
test system: NCI/ADR-RES; assay: NCI tumour cell line growth inhibition, 48 h
Activity calls are given as the source filed them. Rule as the data show it: active = GI50 up to about 1.1 µM and inactive = higher.
measurementName: GI50

* CCOC(=O)CCC(NC(=O)c1ccc(Nc2nc3ccccc3n3cccc23)cc1)C(=O)OCC (stereo not given) | 19.5 µM (inactive)
* CCOC(=O)c1cc2c(OC)cc(OC)cc2oc1=O | > 100 µM (inactive)
* Nc1n[n+]([O-])c2cnccc2[n+]1[O-] | 78 µM (inactive)
* N#Cc1c(N2CCN(c3ccc([N+](=O)[O-])cc3)CC2)[n+]([O-])c2ccccc2[n+]1[O-] | 79.4 µM (inactive)
* COc1ccc(C(Cc2ccccc2)C2NC(=S)NC2=O)cc1 (stereo not given) | > 25 µM (inactive)
* Cc1ccc(S(=O)(=O)N[C@@H](Cc2ccccc2)C(=O)CCl)cc1 [TPCK] | 19.9 µM (inactive)
* O=C(/C=C/C=C/c1ccccc1)c1ccc2c(c1)CCCC2 | 25.8 µM (inactive)
* Cc1cccc2c(=O)c3cccc([C@H](C)C(=O)O)c3oc12 | > 100 µM (inactive)
* c1ccc(COCC23CCN(Cc4ccccc4)C(CC(OCc4ccccc4)C2)S3)cc1 (stereo not given) | 83 µM (inactive)
* O=C(Nc1nnc(-c2ccc(Cl)cc2)o1)C(SC(=S)N1CCOCC1)c1ccccc1 (stereo not given) | 5.58 µM (inactive)
* Nc1ccc(C(=O)O)cc1.Nc1nc(N)c2nc[nH]c2n1 | 38.5 µM (inactive)
* COc1ccccc1/C=N/Nc1nnc2c3ccccc3c3ncccc3c2n1 | 38.1 µM (inactive)
* C[C@]12CC[C@H]3[C@@H](CCC4=CC(=O)C=C[C@@]43O)[C@@H]1CCC2=O | 78.3 µM (inactive)
* C(=C\N1CCCCC1)/c1nnnn1-c1ccccc1 | 20.5 µM (inactive)
* CCOC(=O)/C=C(\C(=O)OCC)n1cnc2c(N)ncnc21 | 17.2 µM (inactive)
* O=C(O)c1ccc(N/C(=C(/C(Cl)=C(Cl)Cl)[N+](=O)[O-])n2nnc3ccccc32)cc1 | > 100 µM (inactive)
* Cn1c2ccccc2c(=NNc2ccc(S(=O)(=O)N=C(N)N)cc2)c2ccccc21 | 21.8 µM (inactive)
* Clc1ccc(C2=NN=C3C(c4ccccc4)=Nc4ccccc4N3C2)cc1 | 4.48 µM (inactive)
* N#Cc1nc(-c2cccc(-c3nc(C#N)c(N)o3)n2)oc1N | > 100 µM (inactive)
* CN(C)CCCn1c(Cc2ccc(Cl)cc2)nc2cc(C(F)(F)F)ccc21 | 15.7 µM (inactive)
* CC(C)(C)NC(=O)/C(=C\Sc1ccccc1)c1ccc2c(c1)OCO2 | 24.2 µM (inactive)
* CCOc1ccnc2c(OC)c(C)c3nc4ccccc4nc3c12 | 71.1 µM (inactive)
* CC1(C)[C@H]2Cc3cc(-c4cc5c(cn4)[C@@H]4C[C@H]([C@@H]5[C@@H]5c6cc(-c7cc8c(cn7)[C@@H]7C[C@H](C8)C7(C)C)ncc6[C@@H]6C[C@H]5C6(C)C)C4(C)C)ncc3[C@@H]1C2 | > 100 µM (inactive)
* CCCC#CC(O)(C(=O)OC1CCN(C)CC1)C1CCCCC1 (stereo not given) | > 100 µM (inactive)
* O=C(NC(=O)c1ccccc1)OC(c1ccccc1)C1CO1 (stereo not given) | > 100 µM (inactive)
